Target: T1, biotinylated native human ApoC3 (human, UniProt P02656 21-99, biotinylated (site not stated))
T1 construct: also called biotinylated human ApoC3
T1 sequence (P02656 21-99): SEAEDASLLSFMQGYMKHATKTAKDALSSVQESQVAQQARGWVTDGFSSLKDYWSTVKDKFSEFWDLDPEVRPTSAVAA
Assay: SPR, IgG1 over biotinylated ApoC3 on SA chip, pH 5.5
Reported koff values for the following binders.
Numbers only; they are read as s⁻¹.

Previously resolved entries follow.
binder | endpoint unit | koff
mAb16 (antibody, IgG1, V domains shown, Produced as full length IgG1 (kappa) in ExpiCHO-S cells; also called humanized anti-ApoC3 antibody mAb16) VH: QLVESGGGLVQPGGSLRLSCAASGFTFGTYSMRWVRQAPGKGLEWVSSIHTEAGGTAYRDSVKGRFTISRDNAKNTLYLQMNNLKAEDTAIYYCVIAGYSDWGQGTQVTVSS VL: DIVMTQSPLSLPVTPGESASISCKTSQGLVHSGGKTYFYWFLQKPGQSPQQLIYQVSNRASGVPDRFTGSGSGTDFTLKISRVEAEDAGVYYCAHGTYYPHTFGSGTRLEIK | s⁻¹ | 0.0121
mAb5 (antibody, IgG1, V domains shown, Produced as full length IgG1 (kappa) in ExpiCHO-S cells; also called humanized anti-ApoC3 antibody mAb5) VH: QLVESGGGLVQPGGSLRLSCAASGFTFGTYSMRWVRQAPGKGLEWVSSIHTEGGGTAYRDSVKGRFTISRDNAKNTLYLQMNSLRAEDTAVYYCVIAGYSDWGQGTLVTVSS VL: DIVMTQSPLSLPVTPGESASISCKTSQGLVHSDGKTYFYWFLQKPGQSPQQLIYQVSNRASGVPDRFTGSGSGTDFTLKISRVKAEDAGVYYCAHGTYYPHTFGQGTRLEIK | s⁻¹ | 0.000145
mAb11 (antibody, IgG1, V domains shown, Produced as full length IgG1 (kappa) in ExpiCHO-S cells; also called humanized anti-ApoC3 antibody mAb11) VH: QLVESGGGLVQPGGSLRLSCAASGFTFSTYSMRWVRQVPGKGLEWVSSIHTEGGGTAYRDSVKGRFTISRDNAKNTLYLQMNNLRAEDTAVYYCVIAGYSDWGQGTLVTVSS VL: DIVMTQSPLSLSVTPGEPASISCKTSQGLVHSDGKTYFYWFLQKPGQSPQQLIYQVSNRASGVPDRFSGSGSGTDFTLKISRVEAEDVGVYYCAHGTYYPHTFGQGTRLEIK | s⁻¹ | 0.000147
mAb7 (antibody, V domains shown, Produced as full length IgG1 (kappa) in ExpiCHO-S cells; also called humanized anti-ApoC3 antibody mAb7) VH: QLVESGGGLVQPGGSLRLSCAASGFTFSTYSMRWVRQAPGKGLEWVSSIHTGGGGTAYRDSVKGRFTISRDNAKNTLYLQMNNLRAEDTAIYYCVIAGYSDWGQGTLVTVSS VL: DIVMTQSPLSLPVTPGESASISCKTSQGLVHSDGKTYFYWFLQKPGQSPQQLIYQVSNRASGVPDRFSGSGSGTDFTLKISRVKAEDAGVYYCAHGTYYPHTFGQGTRLEIK | s⁻¹ | 0.00321
mAb19 (antibody, IgG1, V domains shown, Produced as full length IgG1 (kappa) in ExpiCHO-S cells; also called humanized anti-ApoC3 antibody mAb19) VH: QLVESGGGLVQPGGSLRLSCAASGFTFSTYSMRWVRQAPGKGLEWVSSIHTDAGGTAYRDSVKGRFTISRDNAKNTLYLQMNNLRPEDTAVYYCVIAGYSDWGQGTLVTVSS VL: DIVMTQSPGSLSVTPGEPASISCKTSQGLVHSGGKTYFYWFLQKPGQSPQQLIYQVSNRASGVPDRFTGSGSGTDFTLKISGVEAEDAGVYYCAQGTYYPHTFGQGTRLEIK | s⁻¹ | 0.000296
mAb8 (antibody, IgG1, V domains shown, Produced as full length IgG1 (kappa) in ExpiCHO-S cells; also called humanized anti-ApoC3 antibody mAb8) VH: QLVESGGGLVQPGGSLRLSCAASGFTFSTYSMRWVRQAPGKGLEWVSSIHTDAGGTAYRDSVKGRFTISRDNAKNTLYLQMNNLRAEDTAVYYCVIAGYSDWGQGTLVTVSS VL: DIVMTQSPLSLSVVPGEPASISCKTSQGLVHSDGKTYFYWFLQKPGQSPQQLIYQVSNRASGVPDRFSGSGSGTDFTLKISRVEAEDVGVYYCAHGTYYPHTFGQGTRLEIK | s⁻¹ | 0.000367
5E5WT human IgG1 (antibody, V domains shown) VH: QLQLVESGGGLVQPGGSLRLSCAASGFTFGTYSMRWVRQVPRKALEWVSSISTDGGGTAYRDSVKGRFTISRDNAKNTLYLQMNNLKPEDTAIYYCVIAGYSDWGQGTQVTVSS VL: ATMLTQSPGSLSVVPGESASISCKTSQGLVHSDGKTYFYWFLQKPGQSPQQLIYQVSNRASGVPDRFTGSGSGTDFTLKISGVKAEDAGVYYCAQGTYYPHTFGSGTRLEIK | s⁻¹ | 1.7e-05
mAb1 (antibody, IgG1, V domains shown, Produced as full length IgG1 (kappa) in ExpiCHO-S cells; also called humanized anti-ApoC3 antibody mAb1) VH: QLVESGGGLVQPGGSLRLSCAASGFTFGTYSMRWVRQVPGKGLEWVSSIHTEGGGTAYRDSVKGRFTISRDNAKNTLYLQMNSLRAEDTAIYYCVIAGYSDWGQGTLVTVSS VL: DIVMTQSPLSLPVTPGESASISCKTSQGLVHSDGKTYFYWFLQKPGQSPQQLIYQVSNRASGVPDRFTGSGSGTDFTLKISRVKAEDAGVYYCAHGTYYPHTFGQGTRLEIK | s⁻¹ | 0.000104

Next, consider the following binder.
Could you share which koff value was measured for mAb3 (antibody, IgG1, V domains shown, Produced as full length IgG1 (kappa) in ExpiCHO-S cells; also called humanized anti-ApoC3 antibody mAb3) VH: QLVESGGGLVQPGGSLRLSCAASGFTFGTYSMRWVRQAPGKGLEWVSSIHTEGGGTAYRDSVKGRFTISRDNAKNTLYLQMNSLRAEDTAIYYCVIAGYSDWGQGTLVTVSS VL: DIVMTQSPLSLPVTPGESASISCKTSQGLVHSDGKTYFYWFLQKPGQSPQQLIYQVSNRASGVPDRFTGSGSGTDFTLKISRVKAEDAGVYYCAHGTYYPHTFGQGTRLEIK ?
0.000127
